- System: 186277-243-T-J2-PDC complex spheroid viability;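 note: spheroids exposed to compounds for seven days; 100% = DMSO vehicle control viability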
- assay name: Anticancer human tumor 186277-243-T-J2-PDC patient-derived colon adenocarcinoma cell line growth inhibition [POLQ]
- condition summary: second compound 0.1 µM; first compound 0.01 µM; active compounds read low
Listed compounds paired with reported viability, T/C
readout label: viability, T/C

# compound, assay value
data = [
    ("CCc1c2c(nc3ccc(O)cc13)-c1cc3c(c(=O)n1C2)COC(=O)[C@]3(O)CC + COC1C(OC(N)=O)C(O)C(Oc2ccc3c(O)c(NC(=O)c4ccc(O)c(CC=C(C)C)c4)c(=O)oc3c2C)OC1(C)C", "39.7%"),
    ("Cn1ncnc1[C@H]1c2n[nH]c(=O)c3cc(F)cc(c23)N[C@@H]1c1ccc(F)cc1 + COC1C(OC(N)=O)C(O)C(Oc2ccc3c(O)c(NC(=O)c4ccc(O)c(CC=C(C)C)c4)c(=O)oc3c2C)OC1(C)C", "106%"),
    ("COc1cccc(OCCCN)c1-c1cc(Nc2cnc(C#N)cn2)n[nH]1 + Nc1ccc(C#CCN(C(=O)Cc2ncc(C(F)(F)F)cc2C(F)(F)F)c2ccc(F)cc2)nn1", "13.4%"),
    ("C=CCn1c(=O)c2cnc(Nc3ccc(N4CCN(C)CC4)cc3)nc2n1-c1cccc(C(C)(C)O)n1 + COC1C(OC(N)=O)C(O)C(Oc2ccc3c(O)c(NC(=O)c4ccc(O)c(CC=C(C)C)c4)c(=O)oc3c2C)OC1(C)C", "97.8%"),
    ("Cn1ncnc1[C@H]1c2n[nH]c(=O)c3cc(F)cc(c23)N[C@@H]1c1ccc(F)cc1 + Cc1cccc(N(C)C(=O)C2C(O)CCN2c2nc(C)cc(C(F)(F)F)c2C#N)c1", "106%"),
    ("CC[C@@]1(O)C(=O)OCc2c1cc1n(c2=O)Cc2cc3c(CN(C)C)c(O)ccc3nc2-1 + Cc1cccc(N(C)C(=O)C2C(O)CCN2c2nc(C)cc(C(F)(F)F)c2C#N)c1", "103%"),
    ("C=CCn1c(=O)c2cnc(Nc3ccc(N4CCN(C)CC4)cc3)nc2n1-c1cccc(C(C)(C)O)n1 + Cc1cccc(N(C)C(=O)C2C(O)CCN2c2nc(C)cc(C(F)(F)F)c2C#N)c1", "112%"),
    ("CCc1c2c(nc3ccc(O)cc13)-c1cc3c(c(=O)n1C2)COC(=O)[C@]3(O)CC + Nc1ccc(C#CCN(C(=O)Cc2ncc(C(F)(F)F)cc2C(F)(F)F)c2ccc(F)cc2)nn1", "87.1%"),
    ("COc1cccc(OCCCN)c1-c1cc(Nc2cnc(C#N)cn2)n[nH]1 + Cc1cccc(N(C)C(=O)C2C(O)CCN2c2nc(C)cc(C(F)(F)F)c2C#N)c1", "15.7%"),
    ("CCc1c2c(nc3ccc(O)cc13)-c1cc3c(c(=O)n1C2)COC(=O)[C@]3(O)CC + Cc1cccc(N(C)C(=O)C2C(O)CCN2c2nc(C)cc(C(F)(F)F)c2C#N)c1", "50.3%"),
]
